# Target: UniProt P22459
# Sequence (P22459 whole entry): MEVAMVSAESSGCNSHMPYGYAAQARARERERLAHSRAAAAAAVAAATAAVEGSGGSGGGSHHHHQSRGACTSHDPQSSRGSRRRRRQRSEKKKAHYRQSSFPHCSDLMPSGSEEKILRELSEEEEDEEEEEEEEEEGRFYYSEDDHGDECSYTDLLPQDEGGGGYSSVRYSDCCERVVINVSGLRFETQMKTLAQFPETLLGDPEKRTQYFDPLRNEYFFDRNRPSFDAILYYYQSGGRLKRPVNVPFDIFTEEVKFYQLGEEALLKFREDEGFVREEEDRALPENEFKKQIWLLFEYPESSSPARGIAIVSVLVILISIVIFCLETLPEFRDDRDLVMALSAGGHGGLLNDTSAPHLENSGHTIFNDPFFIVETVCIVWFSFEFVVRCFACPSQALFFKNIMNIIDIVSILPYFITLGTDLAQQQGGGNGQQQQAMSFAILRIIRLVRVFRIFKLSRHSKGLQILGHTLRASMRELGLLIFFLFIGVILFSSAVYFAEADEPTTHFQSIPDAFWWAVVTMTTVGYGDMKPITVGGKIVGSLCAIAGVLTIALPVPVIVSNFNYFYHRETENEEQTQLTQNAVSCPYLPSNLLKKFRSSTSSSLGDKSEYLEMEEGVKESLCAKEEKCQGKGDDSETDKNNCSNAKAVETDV
# Assay Details: Inhibition of human Kv1.4 expressed in CHO cells at -80 mV holding potential by whole cell automated patch clamp method
pIC50: −log10 of the molar value.

Compound	Target	Relation Qualifier	pIC50
Nc1nc(/C=C/CNC(=O)c2cc3cc(F)ccc3[nH]2)c[nH]1	UniProt P22459	=	5.06
Nc1nc(/C=C/CNC(=O)c2cc(Br)c[nH]2)c[nH]1	UniProt P22459	=	5.28
Nc1nc(/C=C/CNC(=O)c2cc(Cl)c(Cl)[nH]2)c[nH]1	UniProt P22459	=	5.82
Cc1[nH]c(C(=O)NC/C=C/c2c[nH]c(N)n2)cc1Cl	UniProt P22459	=	4.82
Nc1nc(/C=C/CNC(=O)c2cc3cc(Cl)ccc3[nH]2)c[nH]1	UniProt P22459	=	4.77
Nc1nc(/C=C/CNC(=O)c2cc3ccccc3[nH]2)c[nH]1	UniProt P22459	=	4.89
Nc1ncc(/C=C/CNC(=O)c2ccc[nH]2)[nH]1 [CLATHRODIN]	UniProt P22459	<	4.52
O=c1ccc2c(OCCCCOc3ccccc3)c3ccoc3cc2o1	UniProt P22459	=	6.77
Cc1[nH]c(C(=O)NC/C=C/c2c[nH]c(N)n2)cc1Br	UniProt P22459	=	4.92
Nc1ncc(/C=C/CNC(=O)c2cc(Br)c(Br)[nH]2)[nH]1 [OROIDIN]	UniProt P22459	=	5.68
Cc1[nH]c(C(=O)NC/C=C/c2c[nH]c(N)n2)c(Br)c1Br	UniProt P22459	=	4.92

----------
As shown below, each of these compounds has a reported IC50 value.
# Target: UniProtKB P22001
# Sequence (P22001 whole entry, looked up): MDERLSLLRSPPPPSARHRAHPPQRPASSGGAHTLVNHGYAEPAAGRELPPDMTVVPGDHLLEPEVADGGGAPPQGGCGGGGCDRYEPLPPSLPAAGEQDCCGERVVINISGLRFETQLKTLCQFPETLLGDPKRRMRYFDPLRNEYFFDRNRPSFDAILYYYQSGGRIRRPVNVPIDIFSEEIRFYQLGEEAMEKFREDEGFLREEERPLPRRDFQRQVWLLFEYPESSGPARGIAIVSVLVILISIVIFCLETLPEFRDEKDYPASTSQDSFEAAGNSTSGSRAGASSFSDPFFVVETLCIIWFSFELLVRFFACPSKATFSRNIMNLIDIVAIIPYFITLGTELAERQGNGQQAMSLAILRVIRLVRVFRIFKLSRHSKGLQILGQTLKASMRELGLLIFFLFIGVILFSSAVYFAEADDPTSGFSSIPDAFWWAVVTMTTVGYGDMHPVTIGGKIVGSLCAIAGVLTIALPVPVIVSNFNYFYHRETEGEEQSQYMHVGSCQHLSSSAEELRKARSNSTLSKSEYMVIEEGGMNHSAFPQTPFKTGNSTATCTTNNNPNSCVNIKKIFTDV
# Assay Details: Inhibition of human Kv1.3 expressed in Xenopus laevis oocytes at -90 mV holding potential by two-electrode voltage clamp assay

Mol Smiles	IC50
Nc1ncc(/C=C/CNC(=O)c2cc(Br)c(Br)[nH]2)[nH]1	0.82 µM
Cc1[nH]c(C(=O)NC/C=C/c2c[nH]c(N)n2)c(Br)c1Br	> 10 µM
Nc1nc(/C=C/CNC(=O)c2cc(Cl)c(Cl)[nH]2)c[nH]1	> 10 µM
Cc1[nH]c(C(=O)NC/C=C/c2c[nH]c(N)n2)cc1Br	> 10 µM
Cc1[nH]c(C(=O)NC/C=C/c2c[nH]c(N)n2)cc1Cl	> 10 µM

----------
# Target: Potassium voltage-gated channel subfamily A member 6 (Rattus norvegicus)
# Sequence (P17659 whole entry): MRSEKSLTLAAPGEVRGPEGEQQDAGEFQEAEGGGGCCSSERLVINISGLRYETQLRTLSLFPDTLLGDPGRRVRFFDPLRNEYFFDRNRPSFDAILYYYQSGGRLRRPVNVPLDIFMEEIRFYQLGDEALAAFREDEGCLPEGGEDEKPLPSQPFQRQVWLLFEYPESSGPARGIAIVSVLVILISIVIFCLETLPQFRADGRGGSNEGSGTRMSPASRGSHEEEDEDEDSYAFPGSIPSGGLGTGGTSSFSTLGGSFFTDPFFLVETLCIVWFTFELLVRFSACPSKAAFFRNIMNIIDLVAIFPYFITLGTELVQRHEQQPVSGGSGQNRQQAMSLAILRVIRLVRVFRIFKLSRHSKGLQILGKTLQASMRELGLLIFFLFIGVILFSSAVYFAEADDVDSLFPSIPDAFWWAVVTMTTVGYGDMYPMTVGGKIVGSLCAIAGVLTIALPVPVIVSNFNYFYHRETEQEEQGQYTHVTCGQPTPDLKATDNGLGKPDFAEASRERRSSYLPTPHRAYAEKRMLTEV
# Assay Details: Inhibition of rat Kv1.6 expressed in Xenopus laevis oocytes at -90 mV holding potential by two-electrode voltage clamp assay

Mol Smiles	Relation Qualifier	IC50 (µM)
Cc1[nH]c(C(=O)NC/C=C/c2c[nH]c(N)n2)c(Br)c1Br	>	10
Nc1nc(/C=C/CNC(=O)c2cc(Cl)c(Cl)[nH]2)c[nH]1	=	0.17
Nc1ncc(/C=C/CNC(=O)c2cc(Br)c(Br)[nH]2)[nH]1	>	10
Cc1[nH]c(C(=O)NC/C=C/c2c[nH]c(N)n2)cc1Cl	>	10
Cc1[nH]c(C(=O)NC/C=C/c2c[nH]c(N)n2)cc1Br	=	9.8

----------
# Target: UniProtKB P17659
# Assay Details: Inhibition of rat Kv1.6 expressed in Xenopus laevis oocytes at 1 uM at -90 mV holding potential by two-electrode voltage clamp assay relative to control
# Assay type: cell-based
The source made the active and inactive calls. No cut-off for these calls is given here.

Mol Smiles	inhibition
Cc1[nH]c(C(=O)NC/C=C/c2c[nH]c(N)n2)cc1Cl	inactive
COc1ccc2[nH]c(C(=O)NC/C=C/c3c[nH]c(N)n3)cc2c1	inactive
CC(C)(C)OC(=O)N1CCC(C(=O)NC/C=C/c2c[nH]c(N)n2)CC1	inactive
Nc1nc(/C=C/CNC(=O)c2cc(Cl)c(Cl)[nH]2)c[nH]1	inactive
Nc1nc(/C=C/CNC(=O)c2cc(Br)c[nH]2)c[nH]1	22%
Cc1[nH]c(C(=O)NC/C=C/c2c[nH]c(N)n2)c(Br)c1Br	41%
Nc1ncc(/C=C/CNC(=O)c2ccc[nH]2)[nH]1	inactive
Nc1nc(/C=C/CNC(=O)c2cc3cc(F)ccc3[nH]2)c[nH]1	inactive
Cc1[nH]c(C(=O)NC/C=C/c2c[nH]c(N)n2)cc1Br	63%

----------
# Target: Potassium voltage-gated channel subfamily A member 4 (Rattus norvegicus)
# Assay Details: Inhibition of rat Kv1.4 expressed in Xenopus laevis oocytes at 1 uM at -90 mV holding potential by two-electrode voltage clamp assay relative to control
# Type: cell-based
The source made the active and inactive calls. No cut-off for these calls is given here.

Mol Smiles	Target	inhibition
Nc1ncc(/C=C/CNC(=O)c2ccc[nH]2)[nH]1	Potassium voltage-gated channel subfamily A member 4 (Rattus norvegicus)	inactive
COc1ccc2[nH]c(C(=O)NC/C=C/c3c[nH]c(N)n3)cc2c1	Potassium voltage-gated channel subfamily A member 4 (Rattus norvegicus)	inactive
Nc1nc(CCCNC(=O)c2cc(Br)c(Br)[nH]2)c[nH]1	Potassium voltage-gated channel subfamily A member 4 (Rattus norvegicus)	inactive
Cc1[nH]c(C(=O)NC/C=C/c2c[nH]c(N)n2)c(Br)c1Br	Potassium voltage-gated channel subfamily A member 4 (Rattus norvegicus)	33%
Nc1nc(/C=C/CNC(=O)c2cc(Cl)c(Cl)[nH]2)c[nH]1	Potassium voltage-gated channel subfamily A member 4 (Rattus norvegicus)	90%
Nc1nc(/C=C/CNC(=O)c2cc3cc(F)ccc3[nH]2)c[nH]1	Potassium voltage-gated channel subfamily A member 4 (Rattus norvegicus)	inactive
Nc1nc(/C=C/CNC(=O)c2cc3cc(Cl)ccc3[nH]2)c[nH]1	Potassium voltage-gated channel subfamily A member 4 (Rattus norvegicus)	inactive
